tested on: p38-beta; construct: gene MAPK11; conditions: concentration: 1 μM, replicates: in singlicate; n = 1;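 also: KINOMEscan kinase panel screen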
Value kind: %Inh
Could you write the number and then its unit?

Illustrative cases are given below, each with its answer.
[Q] Report %Inh for Cl.c1ccc(-c2ccc3c(Nc4ccc5[nH]ncc5c4)ccnc3c2)nc1 please.
[A] 0%

[Q] Report %Inh for CNC(=O)c1ccccc1Nc1nc(Nc2ccc(N3CCOCC3)cc2)ncc1Cl.Cl please.
[A] 2%

[Q] Report %Inh for Cc1ccc(C(=O)N2CC[C@@H](O)C2)cc1-n1c(C)cc(OCc2ccc(F)cc2F)c(Br)c1=O please.
[A] 95.4%

[Q] Report %Inh for Cn1cc(-c2[nH]c3cc(NC(=O)[C@H](N)C4CCCCC4)cc4c3c2C=NNC4=O)cn1 please.
[A] 0%

Next:
[Q] Report %Inh for Nc1ncnc2c1nc(-c1ccccc1)n2-c1ccccc1 please.
[A] 4%

[Q] Report %Inh for Cc1occc1-c1ncc(OC[C@@H](N)Cc2c[nH]c3ccccc23)cc1-c1ccc2[nH]nc(C)c2c1.O=C(O)C(F)(F)F please.
[A] 36%

[Q] Report %Inh for Cl.NC(=O)c1cccc(Nc2nccc(Nc3ccc(Oc4c(Cl)cccc4Cl)c(Cl)c3)n2)c1 please.
[A] 100%

[Q] Report %Inh for COc1cc(Nc2nccc(-c3c(-c4cccc(NC(=O)c5c(F)cccc5F)c4)nn4ccccc34)n2)cc(OC)c1OC please.
[A] 7%
